Data origin, for the record: ChEMBL document CHEMBL5113439

- method_notes: Cytotoxicity against human HEK293 cells assessed as reduction in cell viability incubated for 72 hrs by MTT assay
- Format: toxicity, cell-based
Numbered stars: 1 amine (or outer) side, 2 acyl side, 3 side chain; on linkers, the order of the positions; unused ones are H or OH. Bridge positions count the residues as written; N and C are the ends. Square brackets hold non-standard residues; d marks the D form. Peptide text beside a SMILES is read from it. Trp(2-yl) = O=C([C@H](Cc1c([*:3])[nH]c2ccccc12)N[*:1])[*:2]; X4 = O=C([C@H](Cc1c([*:3])[nH]c2ccc(O)cc12)N[*:1])[*:2]; Ile(4R-OH,5-OH) = C[C@H]([C@H](N)C(=O)O)[C@@H](O)CO; X2 = CC[C@H](C)[C@@H](CNNC(=O)[*:2])N[*:1]; X3 = C[C@H](S[*:3])[C@H](N[*:1])C(=O)[*:2]; Nva(3-Et) = CCC(CC)[C@H](N)C(=O)O; Hyp = O=C(O)[C@@H]1C[C@@H](O)CN1
Items are presented alongside their recorded IC50 at 72 h.
measured_attribute: IC50 at 72 h

CC[C@H](C)[C@@H]1NC(=O)CNC(=O)[C@@H]2Cc3c([nH]c4ccc(O)cc34)S[C@@H](C)[C@H](NC(=O)CNC1=O)C(=O)N[C@@H](CC(N)=O)C(=O)N1C[C@H](O)C[C@H]1C(=O)N[C@@H]([C@@H](C)[C@@H](O)CO)C(=O)N2 (cyclo(GIG[X3]N[Hyp][Ile(4R-OH,5-OH)][X4]); thioether 4-8) : 880 nM
CC[C@H](C)[C@@H]1NC(=O)CNC(=O)[C@@H]2Cc3c([nH]c4cc(O)ccc34)[S+]([O-])C[C@H](NC(=O)CNC1=O)C(=O)N[C@@H](CC(N)=O)C(=O)N1C[C@H](O)C[C@H]1C(=O)N[C@@H]([C@@H](C)[C@@H](O)CO)C(=O)N2 (stereo partly specified) : 1000 nM
CCC(CC)[C@@H]1NC(=O)CNC(=O)[C@@H]2Cc3c([nH]c4ccc(O)cc34)SC[C@H](NC(=O)CNC1=O)C(=O)N[C@@H](CC(N)=O)C(=O)N1C[C@H](O)C[C@H]1C(=O)N[C@@H]([C@@H](C)[C@@H](O)CO)C(=O)N2 (cyclo(CN[Hyp][Ile(4R-OH,5-OH)][X4]G[Nva(3-Et)]G); thioether 1-5) : 320 nM
CC[C@H](C)[C@@H]1NC(=O)CNC(=O)[C@@H]2Cc3c([nH]c4ccccc34)S[C@@H](C)[C@H](NC(=O)CNC1=O)C(=O)N[C@@H](CC(N)=O)C(=O)N1C[C@H](O)C[C@H]1C(=O)N[C@@H]([C@@H](C)[C@@H](O)CO)C(=O)N2 (cyclo(GIG[X3]N[Hyp][Ile(4R-OH,5-OH)][Trp(2-yl)]); thioether 4-8) : 510 nM
CC[C@H](C)[C@H]1CNNC(=O)N[C@H]2CSc3[nH]c4ccccc4c3C[C@H](NC(=O)[C@H]([C@@H](C)[C@@H](O)CO)NC(=O)[C@@H]3C[C@@H](O)CN3C(=O)[C@H](CC(N)=O)NC2=O)C(=O)NCC(=O)N1 (cyclo(CN[Hyp][Ile(4R-OH,5-OH)][Trp(2-yl)]G[X2]); thioether 1-5) : 460 nM
CCC(CC)[C@@H]1NC(=O)CNC(=O)[C@@H]2Cc3c([nH]c4ccc(O)cc34)S[C@@H](C)[C@H](NC(=O)CNC1=O)C(=O)N[C@@H](CC(N)=O)C(=O)N1C[C@H](O)C[C@H]1C(=O)N[C@@H]([C@@H](C)[C@@H](O)CO)C(=O)N2 (cyclo(G[Nva(3-Et)]G[X3]N[Hyp][Ile(4R-OH,5-OH)][X4]); thioether 4-8) : 510 nM
